- experimental_system: T1, recombinant mouse DLL4 (C-terminally His-tagged extracellular domain, R&D Systems) (mouse, UniProt Q9JI71 27-532)
- T1 construct: extracellular domain; also called rmDLL4; mDLL4
- T1 sequence (Q9JI71 27-532): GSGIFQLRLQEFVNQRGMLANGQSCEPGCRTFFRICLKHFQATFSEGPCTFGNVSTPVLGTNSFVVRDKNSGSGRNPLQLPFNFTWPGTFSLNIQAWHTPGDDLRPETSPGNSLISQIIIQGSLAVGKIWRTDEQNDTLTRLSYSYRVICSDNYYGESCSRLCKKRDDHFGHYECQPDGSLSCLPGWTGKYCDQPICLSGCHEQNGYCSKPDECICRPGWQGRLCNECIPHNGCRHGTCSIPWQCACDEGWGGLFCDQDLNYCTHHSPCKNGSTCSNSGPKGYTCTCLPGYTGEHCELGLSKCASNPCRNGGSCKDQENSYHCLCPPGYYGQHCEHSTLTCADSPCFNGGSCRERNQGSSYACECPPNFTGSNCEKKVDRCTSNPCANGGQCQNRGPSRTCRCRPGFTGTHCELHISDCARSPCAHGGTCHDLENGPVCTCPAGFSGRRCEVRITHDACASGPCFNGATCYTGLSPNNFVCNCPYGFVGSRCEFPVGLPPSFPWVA
- assay_info: ProteOn off-rate screen, periplasmic extract, coated mouse DLL4
metric_name: fold (off-rate vs DLLBII101G08) (fold)
The reply should contain only the number, in fold.

Fill in reported fold (off-rate vs DLLBII101G08) for this entry: DLLBII129H02 (VHH) VHH: EVQLVESGGGLVQAGGSLRLSCAASGRTFSSYAMAWYRQAPGKEREYVAAIRWSGGTAYYADSVQGRFTISRDNAKNTVYLQMNSLKPEDTAVYYCANRAPDTRLRPYEYDYWGQGTQVTVSS
19

Fill in reported fold (off-rate vs DLLBII101G08) for this entry: DLLBII130B02 (VHH) VHH: EVQLVESGGGLVQAGGSLRLSCAASGRTFSSYAMAWFRQAPGKEREYVAAIRWSGGTAYYADSVQGRFTISRDNAKNTVYLQMYSLKPEDTAVYYCANRAPDTRLAPYLYDHWGQGTQVTVSS
17

Fill in reported fold (off-rate vs DLLBII101G08) for this entry: DLLBII129D01 (VHH) VHH: EVQLVESGGGLVQAGGSLRLSCAASGRTFSSYAMAWFRQAPGKEREYVAAIRWSGGTAYYADSVQSRFTITRDNAKNTVYLQMNSLKPEDTAVYYCANRAPDTRLEPYLYDHWGQGTQVTVSS
26

Fill in reported fold (off-rate vs DLLBII101G08) for this entry: DLLBII129D08 (VHH, not shown: small tags and cut ends) VHH: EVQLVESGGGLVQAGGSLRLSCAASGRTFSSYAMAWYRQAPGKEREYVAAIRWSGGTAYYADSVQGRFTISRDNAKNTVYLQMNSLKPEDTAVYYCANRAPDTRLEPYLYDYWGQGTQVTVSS
35
